Data provenance is patent US12459952B2.

system_tested: Human TREM2 (Homo sapiens, UniProt Q9NZC2)
Construct: expressed in transfected cells
Sequence (Q9NZC2 19-230): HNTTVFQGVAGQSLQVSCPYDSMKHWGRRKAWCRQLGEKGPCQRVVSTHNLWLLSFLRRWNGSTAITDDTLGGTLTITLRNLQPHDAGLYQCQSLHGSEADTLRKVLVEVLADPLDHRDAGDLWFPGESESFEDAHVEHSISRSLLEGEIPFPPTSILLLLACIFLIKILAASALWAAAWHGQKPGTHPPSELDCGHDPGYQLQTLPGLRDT
Sequence (O43914 22-113 partner): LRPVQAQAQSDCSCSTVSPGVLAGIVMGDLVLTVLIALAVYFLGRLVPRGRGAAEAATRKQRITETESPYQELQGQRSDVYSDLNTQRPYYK
assay_method_text: Human TREM2 cellular phospho-Syk AlphaLISA assay in HEK293/DAP12+TREM2 stable cell line
Type: cell-based
test_context: maximal response relative to the maximal response of the reference agonist; phospho-Syk AlphaLISA, HEK293/DAP12+TREM2 cells
Each entry below carries its reported Emax.

Consider the reported Emax for these compounds:
>>> recorded_measurement("CCCn1cc(OC2CN(c3nc(-c4ccc(C#N)cc4F)c4nc(C(F)(F)F)n(C)c(=O)c4n3)C2)cn1")
"75 to 110%"
>>> recorded_measurement("Cn1c(C(F)(F)F)nc2c(-c3ccc(C#N)cc3F)nc(N3CC(Oc4cnccn4)C3)nc2c1=O")
"< 75%"

Please list Emax recorded for the compound `Cn1c(C(F)(F)F)nc2c(-c3ccc(C#N)cc3F)nc(N3CC(Oc4ccnc(C(F)F)c4)C3)nc2c1=O` 75 to 110%

Please list Emax recorded for the compound `Cn1c(C(F)(F)F)nc2c(-c3ccc(C#N)cc3F)nc(N3CC(Oc4ccnc(C#N)c4)C3)nc2c1=O` 75 to 110%

Please list Emax recorded for the compound `Cn1c(C(F)(F)F)nc2c(-c3ccc(C#N)cc3F)nc(N3CC(Oc4cnn(CC(F)F)c4)C3)nc2c1=O` 75 to 110%

Please list Emax recorded for the compound `Cc1ncncc1OC1CN(c2nc(-c3ccc(C#N)cc3F)c3nc(C(F)(F)F)n(C)c(=O)c3n2)C1` < 75%

Please list Emax recorded for the compound `Cn1c(C(F)(F)F)nc2c(-c3ccc(C#N)cc3F)nc(N3CC(Oc4cnn(C5CCC5)c4)C3)nc2c1=O` 75 to 110%
